Molecular target: amyloid plaques in AD brain homogenates (Homo sapiens, UniProt P05067)
Sequence (P05067 672-711): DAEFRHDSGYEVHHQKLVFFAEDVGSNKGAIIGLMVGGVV
test_readout: pKi
Remember, pKi is on a log scale: it is -log10 of the molar concentration.

The compound CN(C)c1ccc(/C=C/c2ccc(OCCOCCOCCF)nc2)cc1 , when measured on amyloid plaques in AD brain homogenates (Homo sapiens, UniProt P05067), yielded pKi of 8.60

----------
Test: Organ distribution in normal ICR mice after iv injection of radiolabeled tracer
Type: in vivo
Settings: [125I]-labeled tracer, 1 hr
test_readout: Biodistribution: Lung
# output: number + unit

Record excerpt, results attached:
Entry CNc1ccc(/C=C/c2cnc(OCCO)c(I)c2)cc1 [[^125I]16b] , Biodistribution: Lung reported as 1.76 ± 0.32 % dose/g

Entry CNc1ccc(/C=C/c2cnc(OCCOCCOCCF)c(I)c2)cc1 [[^125I]13b] , Biodistribution: Lung reported as 2.37 ± 0.29 % dose/g

Entry CN(C)c1ccc(/C=C/c2cnc(OCCOCCOCCF)c(I)c2)cc1 [[^125I]13a] , Biodistribution: Lung reported as 1.62 ± 0.46 % dose/g

Then this compound:
Entry CN(C)c1ccc(/C=C/c2cnc(OCCO)c(I)c2)cc1 [[^125I]16a] , Biodistribution: Lung reported as 1.98 ± 0.21 % dose/g
